Cited source for all entries: patent US9365551B2

Tested On: 6His-Tev-LRRK2 (1326-2527) (Homo sapiens, UniProt Q5S007)
Construct: A LRRK2 cDNA encoding residues 1326-2527 was received from Dundee University; made in house; host or cells: Spodoptera frugiperda (Sf9) insect cells, baculovirus (pFB-HTb)
Sequence (Q5S007 1326-2527): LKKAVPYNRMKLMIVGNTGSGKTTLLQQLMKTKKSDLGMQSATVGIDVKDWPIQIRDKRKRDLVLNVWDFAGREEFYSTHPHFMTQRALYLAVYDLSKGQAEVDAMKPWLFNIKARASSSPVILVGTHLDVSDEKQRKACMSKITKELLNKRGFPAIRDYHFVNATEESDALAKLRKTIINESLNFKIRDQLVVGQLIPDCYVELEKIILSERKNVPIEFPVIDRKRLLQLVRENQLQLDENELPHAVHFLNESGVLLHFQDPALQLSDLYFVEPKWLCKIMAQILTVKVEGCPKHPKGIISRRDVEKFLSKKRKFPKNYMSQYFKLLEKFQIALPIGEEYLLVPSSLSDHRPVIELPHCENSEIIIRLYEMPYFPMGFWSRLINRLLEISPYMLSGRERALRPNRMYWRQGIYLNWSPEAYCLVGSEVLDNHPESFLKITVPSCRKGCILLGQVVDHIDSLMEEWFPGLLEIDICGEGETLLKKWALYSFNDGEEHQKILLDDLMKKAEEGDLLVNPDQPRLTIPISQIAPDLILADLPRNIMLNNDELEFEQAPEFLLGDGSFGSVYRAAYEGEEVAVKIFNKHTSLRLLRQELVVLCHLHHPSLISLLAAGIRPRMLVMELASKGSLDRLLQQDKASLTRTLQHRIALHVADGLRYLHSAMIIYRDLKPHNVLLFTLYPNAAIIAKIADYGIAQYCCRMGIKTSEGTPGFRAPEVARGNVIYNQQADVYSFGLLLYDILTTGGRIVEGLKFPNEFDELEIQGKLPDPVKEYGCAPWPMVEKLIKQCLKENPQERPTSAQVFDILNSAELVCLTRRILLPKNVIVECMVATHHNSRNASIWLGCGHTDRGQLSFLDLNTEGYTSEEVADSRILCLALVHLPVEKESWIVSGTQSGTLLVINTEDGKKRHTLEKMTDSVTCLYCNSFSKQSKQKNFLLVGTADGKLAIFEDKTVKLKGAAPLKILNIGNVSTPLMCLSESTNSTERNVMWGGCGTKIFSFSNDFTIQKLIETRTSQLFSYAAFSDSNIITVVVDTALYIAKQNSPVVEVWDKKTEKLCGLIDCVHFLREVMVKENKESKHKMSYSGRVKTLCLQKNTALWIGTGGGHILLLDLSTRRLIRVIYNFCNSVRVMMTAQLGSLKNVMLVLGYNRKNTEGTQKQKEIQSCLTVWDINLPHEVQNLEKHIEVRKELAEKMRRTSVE
Measurement Protocol: LRRK2 AlphaScreen desensitised protein substrate assay
Assay type: biochemical
Conditions Used: mean pIC50 of multiple test results; stated as threshold; read-out: pIC50 in the LRRK2 alphascreen desensitised protein substrate assay (bounds) (converted)
So I've got a bunch of compounds here, and I need their IC50 values.

Data point: `O=C(Nc1ccnnc1)c1cc(Cl)c(C(=O)N2CCC(F)(F)C2)cc1OCc1ccccc1` ; IC50 = ≤ 25.1 µM

Data point: `O=C(Nc1cccc(Cl)c1)c1cc(Cl)c(C(=O)N2CCOCC2)cc1OCc1ccccc1` ; IC50 = ≤ 0.316 µM

Data point: `O=C(Nc1ccnnc1)c1cc(C(F)(F)F)c(CN2CCCCC2)cc1OCc1ccccc1` ; IC50 = ≤ 25.1 µM

Data point: `Cn1cc(-c2cc(C(=O)Nc3cccnc3)c(OCc3ccc(F)cc3)cc2CN2CCOCC2)cn1` ; IC50 = ≤ 0.316 µM

Data point: `Cc1cc(OCc2ccccc2)c(C(=O)Nc2cccnc2)cc1-c1cnn(C)c1` ; IC50 = ≤ 0.316 µM

Data point: `Cn1cc(-c2cc(C(=O)Nc3cccnc3)c(OCc3ccc(F)cc3)cc2C(=O)N2CCOCC2)cn1` ; IC50 = ≤ 0.316 µM

Data point: `Cn1cc(-c2cc(OCc3ccc(F)cc3)c(C(=O)Nc3ccnnc3)cc2CN2CCOCC2)cn1` ; IC50 = ≤ 25.1 µM

Data point: `O=C(Nc1ccnnc1)c1cc(C(F)(F)F)c(C(=O)N2CCCCC2)cc1OCc1ccccc1` ; IC50 = ≤ 25.1 µM
